Target: TAOK1 (human) (UniProt Q7L7X3)
Sequence (Q7L7X3 whole entry, looked up): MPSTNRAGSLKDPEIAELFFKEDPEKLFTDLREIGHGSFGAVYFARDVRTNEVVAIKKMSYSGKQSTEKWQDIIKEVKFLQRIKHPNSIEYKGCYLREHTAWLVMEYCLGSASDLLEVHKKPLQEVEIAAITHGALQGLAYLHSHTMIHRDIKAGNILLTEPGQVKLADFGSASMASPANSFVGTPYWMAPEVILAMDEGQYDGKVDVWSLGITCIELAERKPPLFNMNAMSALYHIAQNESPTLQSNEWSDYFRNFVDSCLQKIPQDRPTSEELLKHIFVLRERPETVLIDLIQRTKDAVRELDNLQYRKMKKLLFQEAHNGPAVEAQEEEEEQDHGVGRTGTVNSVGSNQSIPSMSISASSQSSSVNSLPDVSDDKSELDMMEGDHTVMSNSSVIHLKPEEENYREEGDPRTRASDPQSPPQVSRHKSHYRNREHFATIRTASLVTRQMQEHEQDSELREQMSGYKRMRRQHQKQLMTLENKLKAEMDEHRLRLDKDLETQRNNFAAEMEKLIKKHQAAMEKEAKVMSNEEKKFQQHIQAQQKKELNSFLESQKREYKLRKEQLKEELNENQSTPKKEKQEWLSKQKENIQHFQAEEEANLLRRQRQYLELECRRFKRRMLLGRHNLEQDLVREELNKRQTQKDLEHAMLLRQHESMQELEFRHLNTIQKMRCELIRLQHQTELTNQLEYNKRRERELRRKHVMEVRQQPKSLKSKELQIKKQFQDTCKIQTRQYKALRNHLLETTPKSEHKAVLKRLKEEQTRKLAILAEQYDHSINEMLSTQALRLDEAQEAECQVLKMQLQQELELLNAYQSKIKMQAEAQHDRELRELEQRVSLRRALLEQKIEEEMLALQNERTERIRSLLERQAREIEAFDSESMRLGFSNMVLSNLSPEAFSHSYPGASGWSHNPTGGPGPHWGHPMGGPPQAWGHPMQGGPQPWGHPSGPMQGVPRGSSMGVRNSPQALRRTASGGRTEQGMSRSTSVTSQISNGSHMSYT
Assay: KINOMEscan competition binding
Conditions: compound 10.0 µM
parameter: kinase still bound, per cent of control (%)
Hi! Could you send only the number? It should be in %, unit omitted.

Some compounds with recorded kinase still bound, per cent of control:
# structure-smiles-string, kinase still bound, per cent of control [%]
records = [
    ("CSC1=NC(=O)/C(=C/c2ccc(-c3ccc(S(N)(=O)=O)cc3)o2)S1", 3.6),
    ("N=C1NC(=O)/C(=C/c2ccc(-c3ccc(C(N)=O)cc3O)o2)S1", 2.2),
    ("N=C1NC(=O)/C(=C/c2ccc(-c3ccc(F)cc3)o2)S1", 0.3),
    ("N=C1NC(=O)/C(=C/c2ccc(-c3cncc4ccccc34)o2)S1", 10),
]

Could you now consider this next compound?
Which kinase still bound, per cent of control is listed for CC(=O)Nc1ccc(-c2ccc(/C=C3\SC(=N)NC3=O)o2)c(O)c1 ?
4

---

Biological target: TYK2 JH2 pseudokinase (human)
Test: KINOMEscan competition binding
Conditions: compound 10.0 µM
parameter: kinase still bound, per cent of control (%)
Hi! Could you send only the number? It should be in %, unit omitted.

Some molecules with recorded kinase still bound, per cent of control:
# structure-smiles-string, measurement-unit, kinase still bound, per cent of control
records = [
    ("CN1C(=O)[C@H]2CCC[C@H]2N(C2CCCC2)c2nc(Nc3ccc(C(N)=O)cc3)ncc21", "%", 15),
    ("O=C1NC(=O)/C(=C/c2cc(-c3ccc(N4CCNCC4)nc3)c[nH]c2=O)S1", "%", 14),
    ("N=C1NC(=O)/C(=C/c2ccc(-c3ccc(C(N)=O)cc3O)o2)S1", "%", 0.25),
    ("CN1CCN(c2ccc(C(=O)Nc3ncc4c(n3)N(C)c3ccccc3C(=O)N4C)cc2)CC1", "%", 61),
]

Which kinase still bound, per cent of control is listed for COc1cc(N2CCN(C)CC2)ccc1Nc1ncc2c(n1)Nc1ccccc1NC2=O ?
1

Same thing, different molecule: CN1C(=O)c2ccccc2N(C)c2nc(Nc3ccc(N4CCC(O)CC4)cc3)ncc21
71

---

Molecular target: PLK4 (human) (UniProt O00444)
Sequence (O00444 whole entry, looked up): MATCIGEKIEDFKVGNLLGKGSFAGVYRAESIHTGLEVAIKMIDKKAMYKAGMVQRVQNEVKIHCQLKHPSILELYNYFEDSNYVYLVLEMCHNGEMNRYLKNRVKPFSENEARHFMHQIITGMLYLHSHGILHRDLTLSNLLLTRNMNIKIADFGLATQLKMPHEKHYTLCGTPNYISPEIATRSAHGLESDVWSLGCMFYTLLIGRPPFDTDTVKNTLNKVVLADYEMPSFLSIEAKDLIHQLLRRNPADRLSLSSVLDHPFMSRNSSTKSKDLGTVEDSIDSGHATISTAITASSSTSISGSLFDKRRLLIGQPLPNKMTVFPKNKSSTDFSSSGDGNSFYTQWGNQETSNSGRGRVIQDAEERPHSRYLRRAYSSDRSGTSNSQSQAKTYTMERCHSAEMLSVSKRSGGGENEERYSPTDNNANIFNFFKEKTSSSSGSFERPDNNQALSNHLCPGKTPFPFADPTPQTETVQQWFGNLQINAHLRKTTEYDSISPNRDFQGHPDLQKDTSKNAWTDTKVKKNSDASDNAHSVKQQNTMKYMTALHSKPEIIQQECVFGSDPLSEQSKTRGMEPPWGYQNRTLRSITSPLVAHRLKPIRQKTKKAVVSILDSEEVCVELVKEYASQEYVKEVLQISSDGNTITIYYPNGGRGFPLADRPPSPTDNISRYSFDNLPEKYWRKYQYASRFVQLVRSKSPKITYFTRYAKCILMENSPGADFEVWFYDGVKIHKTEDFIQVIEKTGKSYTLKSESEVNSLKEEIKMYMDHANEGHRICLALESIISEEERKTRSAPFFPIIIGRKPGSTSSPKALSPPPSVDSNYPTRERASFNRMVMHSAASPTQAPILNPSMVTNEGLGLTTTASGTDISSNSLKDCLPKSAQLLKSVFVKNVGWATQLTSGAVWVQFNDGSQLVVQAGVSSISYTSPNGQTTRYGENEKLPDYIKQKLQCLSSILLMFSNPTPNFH
Experiment: KINOMEscan competition binding
Conditions: compound 10.0 µM
parameter: kinase still bound, per cent of control (%)
Hi! Could you send only the number? It should be in %, unit omitted.

Record COc1cc(C(=O)NC2CCN(C)CC2)ccc1Nc1ncc2c(n1)N(C1CCCC1)CCC(=O)N2C : what is its kinase still bound, per cent of control with PLK4 (human) (UniProt O00444)?
11

---

Biological target: UniProtKB Q7L7X3
Assay: KINOMEscan competition binding
Conditions: compound 10.0 µM
The following molecules are shown together with reported kinase still bound, per cent of control values.
Hi! Could you send only the number? It should be in %, unit omitted.

# molecule, kinase still bound, per cent of control, %
measured = [
    ("CN1C(=O)c2ccccc2N(C)c2nc(NS(=O)(=O)c3ccc(N)cc3)ncc21", 60),
    ("CN1C(=O)[C@H]2CCC[C@H]2N(C2CCCC2)c2nc(Nc3ccc(C(N)=O)cc3)ncc21", 8.7),
    ("COc1cc(N2CCN(C)CC2)ccc1Nc1ncc2c(n1)N(C)c1sccc1C(=O)N2C", 18),
    ("CS(=O)(=O)Nc1ccc(-c2cccc(/C=C3\\SC(=N)NC3=O)n2)cc1", 26),
]

Which kinase still bound, per cent of control is listed for N=C1NC(=O)/C(=C/c2c[nH]c(=O)c(-c3ccc(N4CCNCC4)nc3)c2)S1 ?
32

Same thing, different molecule: COc1cc(N2CCN(C)CC2)ccc1Nc1ncc2c(n1)N(C)c1ccccc1N(C)C2=O
100

Same thing, different molecule: N=C1NC(=O)/C(=C/c2ccc(-c3ccc(F)cc3O)o2)S1
0

Same thing, different molecule: CN1C(=O)c2ccccc2N(C)c2nc(Nc3ccc(N4CCC(O)CC4)cn3)ncc21
1

Same thing, different molecule: N=C1NC(=O)/C(=C/c2ccc(-c3csc4ccccc34)o2)S1
18

Same thing, different molecule: CS(=O)(=O)Nc1ccc(-c2ccc(/C=C3\SC(=N)NC3=O)o2)cc1
3

Same thing, different molecule: N=C1NC(=O)/C(=C/c2ccc(-c3cnc4ccccc4c3)o2)S1
34

Same thing, different molecule: COc1cc(N2CCN(C)CC2)ccc1Nc1ncc2c(n1)Nc1ccccc1NC2=O
2.9

Same thing, different molecule: CS(=O)(=O)Nc1ccc(-c2cc(/C=C3\SC(=N)NC3=O)c[nH]c2=O)cc1
23

Same thing, different molecule: O=C1NC(=O)/C(=C/c2c[nH]c(=O)c(-c3ccc(N4CCNCC4)nc3)c2)S1
24

Same thing, different molecule: CN1CCN(c2ccc(C(=O)Nc3ncc4c(n3)N(C)c3ccccc3C(=O)N4C)cc2)CC1
75

Same thing, different molecule: N=C1NC(=O)/C(=C/c2ccc(-c3ccc(S(N)(=O)=O)cc3)o2)S1
2.4

Same thing, different molecule: CS(=O)C1=NC(=O)/C(=C/c2ccc(-c3ccc(S(N)(=O)=O)cc3)o2)S1 (stereo not given)
12

Same thing, different molecule: COc1cc(N2CCN(C)CC2)ccc1Nc1ncc2c(n1)N(C)c1ccccc1C(=O)N2C
4.8

Same thing, different molecule: N=C1NC(=O)/C(=C/c2ccc(-c3ccc(C(=O)Nc4ccc(N5CCNCC5)cc4)cc3O)o2)S1
5.4

Same thing, different molecule: Nc1cccc(-c2cc(/C=C3\SC(=O)NC3=O)c[nH]c2=O)c1
21

---

The following compounds are shown together with reported kinase still bound, per cent of control values.
Molecular target: TYK2 JH2 pseudokinase (human)
Experiment: KINOMEscan competition binding
Conditions: compound 10.0 µM
Hi! Could you send only the number? It should be in %, unit omitted.

# structure-smiles-string, parameter, measurement-unit, measured-number
records = [
    ("N=C1NC(=O)/C(=C/c2ccc(-c3cnc4ccccc4c3)o2)S1", "kinase still bound, per cent of control", "%", 1.1),
    ("CS(=O)(=O)Nc1ccc(-c2ccc(/C=C3\\SC(=N)NC3=O)o2)cc1", "kinase still bound, per cent of control", "%", 21),
    ("COc1cc(C(N)=O)ccc1-c1ccc(/C=C2\\SC(=N)NC2=O)o1", "kinase still bound, per cent of control", "%", 5.1),
    ("O=C1NC(=O)/C(=C/c2c[nH]c(=O)c(-c3ccc(N4CCNCC4)nc3)c2)S1", "kinase still bound, per cent of control", "%", 72),
]

Could you now consider this next compound?
Which kinase still bound, per cent of control is listed for O=C1NC(=O)/C(=C/c2ccc(-c3ccc(F)cc3O)o2)S1 ?
33

---

Target: ACVRL1 (human)
Experiment: KINOMEscan competition binding
Conditions: compound 10.0 µM
parameter: kinase still bound, per cent of control (%)
Hi! Could you send only the number? It should be in %, unit omitted.

Record COc1cc(N2CCC(O)CC2)ccc1Nc1ncc2c(n1)N1CCc3cccc(c31)C(=O)N2C : what is its kinase still bound, per cent of control with ACVRL1 (human)?
100

---

Tested on: PIK3CA (human), P42336 [E545K]
Sequence (P42336 whole entry E545K, looked up): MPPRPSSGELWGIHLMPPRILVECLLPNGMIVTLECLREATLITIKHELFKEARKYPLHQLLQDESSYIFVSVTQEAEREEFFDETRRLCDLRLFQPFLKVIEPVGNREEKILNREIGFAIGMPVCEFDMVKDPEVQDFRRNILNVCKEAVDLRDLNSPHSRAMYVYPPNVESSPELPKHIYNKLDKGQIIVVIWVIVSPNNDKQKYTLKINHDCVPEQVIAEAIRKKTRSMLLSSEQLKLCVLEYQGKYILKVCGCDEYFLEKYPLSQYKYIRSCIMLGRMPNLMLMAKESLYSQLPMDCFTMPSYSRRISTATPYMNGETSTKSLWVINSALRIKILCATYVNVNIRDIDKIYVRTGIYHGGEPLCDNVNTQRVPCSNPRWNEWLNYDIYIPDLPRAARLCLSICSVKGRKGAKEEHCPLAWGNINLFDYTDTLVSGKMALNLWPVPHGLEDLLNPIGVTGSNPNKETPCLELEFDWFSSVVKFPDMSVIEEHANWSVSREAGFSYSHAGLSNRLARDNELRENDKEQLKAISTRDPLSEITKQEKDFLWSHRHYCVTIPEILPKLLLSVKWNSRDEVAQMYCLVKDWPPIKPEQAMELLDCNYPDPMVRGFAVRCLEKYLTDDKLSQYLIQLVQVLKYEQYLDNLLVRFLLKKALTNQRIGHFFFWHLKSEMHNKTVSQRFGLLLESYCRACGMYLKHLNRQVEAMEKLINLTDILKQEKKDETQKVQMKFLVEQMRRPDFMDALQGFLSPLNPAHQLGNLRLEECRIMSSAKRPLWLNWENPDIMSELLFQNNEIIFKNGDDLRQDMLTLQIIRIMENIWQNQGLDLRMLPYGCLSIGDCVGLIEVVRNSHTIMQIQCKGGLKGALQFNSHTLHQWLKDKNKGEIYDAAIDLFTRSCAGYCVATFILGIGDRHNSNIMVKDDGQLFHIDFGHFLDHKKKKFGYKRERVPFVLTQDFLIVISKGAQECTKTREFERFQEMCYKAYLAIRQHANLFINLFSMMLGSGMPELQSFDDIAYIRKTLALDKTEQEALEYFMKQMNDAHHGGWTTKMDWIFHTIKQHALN
Assay: KINOMEscan competition binding
Settings: compound 10.0 µM
parameter: kinase still bound, per cent of control (%)
Hi! Could you send only the number? It should be in %, unit omitted.

# molecule, measurement-unit, kinase still bound, per cent of control
measured = [
    ("NS(=O)(=O)c1ccc(-c2ccc(/C=C3\\SC(=O)NC3=O)o2)cc1", "%", 20),
    ("CN1C(=O)c2ccccc2N(C)c2nc(Nc3ccc(N4CCC(O)CC4)cc3)ncc21", "%", 100),
    ("COc1cc(N2CCC(O)CC2)ccc1Nc1ncc2c(n1)N1CCc3cccc(c31)C(=O)N2C", "%", 88),
    ("CS(=O)(=O)Nc1ccc(-c2ccc(C=C3C(=O)NC(=O)NC3=O)o2)cc1", "%", 20),
    ("COc1cc(N2CCN(C)CC2)ccc1Nc1ncc2c(n1)N(C)c1ccccc1N(C)C2=O", "%", 97),
]

Record CN1CCN(c2ccc(C(=O)Nc3ncc4c(n3)N(C)c3ccccc3C(=O)N4C)cc2)CC1 : what is its kinase still bound, per cent of control with PIK3CA (human), P42336 [E545K]?
99

Same thing, different molecule: N=C1NC(=O)/C(=C/c2ccc(-c3ccc(F)cc3O)o2)S1
24

Same thing, different molecule: CS(=O)C1=NC(=O)/C(=C/c2ccc(-c3ccc(S(N)(=O)=O)cc3)o2)S1 (configuration not stated)
17

Same thing, different molecule: O=C1NC(=O)/C(=C/c2c[nH]c(=O)c(-c3ccc(N4CCNCC4)nc3)c2)S1
37

Same thing, different molecule: COc1cc(N2CCN(C)CC2)ccc1Nc1ncc2c(n1)Nc1ccccc1NC2=O
100

Same thing, different molecule: CN1C(=O)c2ccccc2N(C)c2nc(NS(=O)(=O)c3ccc(N)cc3)ncc21
91

Same thing, different molecule: COc1cc(N2CCN(C)CC2)ccc1Nc1ncc2c(n1)N(C)c1sccc1C(=O)N2C
74

Same thing, different molecule: CS(=O)(=O)Nc1ccc(-c2cncc(/C=C3\SC(=N)NC3=O)c2)cc1
22

Same thing, different molecule: NS(=O)(=O)c1ccc(-c2cccc(/C=C3\SC(=O)NC3=O)c2)cc1
16
